target: NRAS Q61K (Homo sapiens (Human), UniProt P01111+P62937, Q61K); assay: Ras-Raf (BRAF RBD) disruption / FRET / MOA assay, NRAS Q61K; format: biochemical; conditions: NRAS Q61K; Ras-Raf disruption/FRET/MOA assay; read-out: IC50* NRAS Q61K FRET data
Sequence (P01111 whole entry Q61K, one chain of several): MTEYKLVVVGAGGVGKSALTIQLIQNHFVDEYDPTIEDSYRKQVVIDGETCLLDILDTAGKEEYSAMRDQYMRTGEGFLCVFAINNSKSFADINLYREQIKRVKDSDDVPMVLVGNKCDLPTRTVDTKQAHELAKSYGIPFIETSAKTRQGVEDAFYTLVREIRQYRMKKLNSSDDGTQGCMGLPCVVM
Property label: IC50

[[record]]
compound = "CCn1c(-c2cccnc2[C@H](C)OC)c2c3cc(ccc31)-c1cc(CF)cc(c1)C[C@H](NC(=O)[C@H](C(C)C)N(C)C(=O)[C@H]1CCN(C(=O)C#CC(C)(C)N(C)C)C1)C(=O)N1CCC[C@H](N1)C(=O)OCC(C)(C)C2 (atropisomer, axis not shown) [Example A658]"
property_label = "IC50"
result = "> 10 µM"


Would you mind giving IC50 for every compound in the list below?
1. CO[C@@H](COC1CN(C(=O)C#CC(C)(C)N(C)C)C1)C(=O)N[C@H]1Cc2coc(n2)-c2ccc3c(c2)c(c(-c2cccnc2[C@H](C)OC)n3CC(F)(F)F)CC(C)(C)COC(=O)[C@@H]2CCCN(N2)C1=O (atropisomer, axis not shown) [Example A579]
2. CCn1c(-c2cccnc2[C@H](C)OC)c2c3cc(ccc31)-c1cccc(c1)C[C@H](NC(=O)[C@@H](COC1CN(C(=O)C#C[C@H]3COCCN3C)C1)C(C)C)C(=O)N1CCC[C@H](N1)C(=O)OCC(C)(C)C2 (atropisomer, axis not shown) [Example A644]
3. C=CC(=O)N1CC[C@]2(C1)OCN([C@H](C(=O)N[C@H]1Cc3cc(cc(C(F)F)c3)-c3ccc4c(c3)c(c(-c3cccnc3[C@H](C)OC)n4CC)CC(C)(C)COC(=O)[C@@H]3CCCN(N3)C1=O)C(C)C)C2=O (atropisomer, axis not shown) [Example A557]

a:
1. > 10 µM
2. > 10 µM
3. 1 to 10 µM

* * *

Provide the reported pIC50 of each item.
biological target: K-Ras G13C (Homo sapiens (Human), UniProt P01116+P62937, G13C); test: Ras-Raf (BRAF RBD) disruption / FRET / MOA assay, KRAS G13C; assay type: biochemical; details: KRAS G13C; Ras-Raf disruption/FRET/MOA assay; read-out: IC50* KRAS G13C FRET data
Sequence (P01116-2 other isoform, or with tags, fused parts or gaps G13C, one chain of several): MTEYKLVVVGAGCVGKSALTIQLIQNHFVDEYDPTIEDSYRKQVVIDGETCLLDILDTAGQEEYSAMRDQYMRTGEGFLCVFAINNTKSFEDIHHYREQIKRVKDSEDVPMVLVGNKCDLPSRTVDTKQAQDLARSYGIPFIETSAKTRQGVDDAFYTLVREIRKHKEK
pIC50: −log10 of the molar value.

[[record]]
compound = "C=CC(=O)N1CC[C@]2(C1)OCN([C@H](C(=O)N[C@H]1Cc3cc(cc(C(F)F)c3)-c3ccc4c(c3)c(c(-c3cccnc3[C@H](C)OC)n4CC)CC(C)(C)COC(=O)[C@@H]3CCCN(N3)C1=O)C(C)C)C2=O (atropisomer, axis not shown) [Example A557]"
result = "6.00 to 7.00"


Kindly review the next compound as well.
q: Endpoint output: pIC50 of CCn1c(-c2cccnc2[C@H](C)OC)c2c3cc(ccc31)-c1nc(cs1)C[C@H](NC(=O)[C@H](C(C)C)N(C)C(=O)[C@H]1CCN(C(=O)C#CC(C)(C)N3CCC3)C1)C(=O)N1CCC[C@H](N1)C(=O)OCC(C)(C)C2 (atropisomer, axis not shown) [Example A440] . Value?
a: 6.00 to 7.00

* * *

biological target: KRAS G12D (Homo sapiens (Human), UniProt P01116+P62937, G12D); assay: Ras-Raf (BRAF RBD) disruption / FRET / MOA assay, KRAS G12D; format: biochemical; details: Ras-Raf disruption/FRET/MOA assay; class symbols; read-out: KRAS G12D FRET data IC50
Sequence (P01116-2 other isoform, or with tags, fused parts or gaps G12D, one chain of several): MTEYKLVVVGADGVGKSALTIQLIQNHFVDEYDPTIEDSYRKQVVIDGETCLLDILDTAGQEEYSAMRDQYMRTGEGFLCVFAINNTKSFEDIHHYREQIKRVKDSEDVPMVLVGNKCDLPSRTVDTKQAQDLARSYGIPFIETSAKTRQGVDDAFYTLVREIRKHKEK
Property label: IC50

[[record]]
compound = "C=CC(=O)N1CC[C@H](C(=O)N(C)[C@H](C(=O)N[C@H]2Cc3cccc(c3)-c3ccc4c(c3)c(c(-c3cccnc3[C@@H]3CCCO3)n4CC)CC(C)(C)COC(=O)[C@@H]3CCCN(N3)C2=O)C(C)C)C1 (atropisomer, axis not shown) [Example A512]"
result = "> 10 µM"

[[record]]
compound = "CC#CC(=O)N1C[C@H](C)[C@H](C(=O)N(C)[C@H](C(=O)N[C@H]2Cc3cccc(c3)-c3ccc4c(c3)c(c(-c3cccnc3[C@H](C)OC)n4CC)CC(C)(C)COC(=O)[C@@H]3CCCN(N3)C2=O)C(C)C)C1 (atropisomer, axis not shown) [Example A413]"
result = "> 10 µM"

[[record]]
compound = "C=CC(=O)N1CC(OC[C@H](C(=O)N[C@H]2Cc3cc(O)cc(c3)-c3ccc4c(c3)c(c(-c3cccnc3COC)n4CC)CC(C)(C)COC(=O)[C@@H]3CCCN(N3)C2=O)C(C)C)C1 [Example A232]"
result = "> 10 µM"

[[record]]
compound = "C=CC(=O)N1CC(N(C)C(=O)N(C)[C@H](C(=O)N[C@H]2Cc3nc(cs3)-c3ccc4c(c3)c(c(-c3cccnc3[C@H](C)OC)n4CC)CC(C)(C)COC(=O)[C@@H]3CCCN(N3)C2=O)C(C)C)C1 (atropisomer, axis not shown) [Example A435]"
result = "1 to 10 µM"

[[record]]
compound = "C=CC(=O)N1CC[C@H](C(=O)N(C)[C@H](C(=O)N[C@H]2Cc3cccc(c3)-c3ccc4c(c3)c(c(-c3cnccc3[C@H](C)OC)n4CC)CC(C)(C)COC(=O)[C@@H]3CCCN(N3)C2=O)C(C)C)C1 (single isomer, unassigned) [Example A115]"
result = "> 10 µM"

[[record]]
compound = "CCn1c(-c2cccnc2[C@H](C)OC)c2c3cc(ccc31)-c1cccc(c1)C[C@H](NC(=O)[C@H](C(C)C)N(C)C(=O)[C@H]1CCN(C(=O)C#CCN3CCOCC3)C1)C(=O)N1CCC[C@H](N1)C(=O)OCC(C)(C)C2 (atropisomer, axis not shown) [Example A191]"
result = "> 10 µM"

[[record]]
compound = "C=CC(=O)N1CC[C@H](C(=O)N(C)[C@H](C(=O)N[C@H]2Cc3cc(OC(C)=O)cc(c3)-c3ccc4c(c3)c(c(-c3ccccc3CN(C)C)n4CC)CC(C)(C)COC(=O)[C@@H]3CCCN(N3)C2=O)C(C)C)C1 [Example A059]"
result = "> 10 µM"


Read the next record carefully.
q: Look up IC50 with KRAS G12D (Homo sapiens (Human), UniProt P01116+P62937, G12D) for this compound: C=CC(=O)N1CCN(C(=O)N(C)[C@H](C(=O)N[C@H]2Cc3nc(cs3)-c3ccc4c(c3)c(c(-c3cccnc3[C@H](C)OC)n4CC)CC(C)(C)COC(=O)[C@@H]3CCCN(N3)C2=O)C(C)C)C2(CC2)C1 (atropisomer, axis not shown) [Example A395]
a: 1 to 10 µM

* * *

molecular target: K-Ras G12C (Homo sapiens (Human), UniProt P01116+P62937, G12C); test: Ras-Raf (BRAF RBD) disruption / FRET / MOA assay, KRAS G12C; type: biochemical; details: KRAS G12C; Ras-Raf disruption/FRET/MOA assay; read-out: IC50* KRAS G12C FRET data
Sequence (P01116-2 other isoform, or with tags, fused parts or gaps G12C): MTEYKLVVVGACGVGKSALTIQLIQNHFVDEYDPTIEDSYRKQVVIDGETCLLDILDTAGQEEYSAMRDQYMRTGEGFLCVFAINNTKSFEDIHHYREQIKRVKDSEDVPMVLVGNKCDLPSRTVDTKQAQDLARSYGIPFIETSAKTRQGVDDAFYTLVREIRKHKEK
Sequence (P62937 whole entry): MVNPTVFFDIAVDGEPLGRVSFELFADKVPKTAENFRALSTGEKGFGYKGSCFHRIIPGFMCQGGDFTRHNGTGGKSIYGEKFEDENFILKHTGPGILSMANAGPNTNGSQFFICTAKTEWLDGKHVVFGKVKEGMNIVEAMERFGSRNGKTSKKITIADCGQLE
I'd be grateful if you could share measured IC50 for these entries.

[[record]]
molecule = "C=CC(=O)N1CC2(CCN2C(=O)N(C)[C@H](C(=O)N[C@H]2Cc3nc(cs3)-c3ccc4c(c3)c(c(-c3cccnc3[C@H](C)OC)n4CC)CC(C)(C)COC(=O)[C@@H]3CCCN(N3)C2=O)C(C)C)C1 (atropisomer, axis not shown)"
measurement_target = "K-Ras G12C (Homo sapiens (Human), UniProt P01116+P62937, G12C)"
property_label = "IC50"
result = "< 10 nM"

[[record]]
molecule = "CO[C@@H](C)c1ncccc1-c1c2c3cc(ccc3n1CC(F)(F)F)-c1nnc(o1)C[C@H](NC(=O)[C@H](C(C)C)N(C)C(=O)[C@H]1CCN(C(=O)C#CC(C)(C)N3CCC3)C1)C(=O)N1CCC[C@H](N1)C(=O)OCC(C)(C)C2"
measurement_target = "K-Ras G12C (Homo sapiens (Human), UniProt P01116+P62937, G12C)"
property_label = "IC50"
result = "10 to 100 nM"

[[record]]
molecule = "CCn1c(-c2cccnc2[C@H](C)OC)c2c3cc(ccc31)-c1csc(n1)C[C@H](NC(=O)[C@@H](F)COC1CN(C(=O)C#CC(C)(C)N(C)C)C1)C(=O)N1CCC[C@H](N1)C(=O)OCC(C)(C)C2 (atropisomer, axis not shown)"
measurement_target = "K-Ras G12C (Homo sapiens (Human), UniProt P01116+P62937, G12C)"
property_label = "IC50"
result = "< 10 nM"

[[record]]
molecule = "C=CC(=O)N(C)CC1CN(C(=O)N(C)[C@H](C(=O)N[C@H]2Cc3nc(cs3)-c3ccc4c(c3)c(c(-c3cccnc3[C@H](C)OC)n4CC)CC(C)(C)COC(=O)[C@@H]3CCCN(N3)C2=O)C(C)C)C1 (atropisomer, axis not shown)"
measurement_target = "K-Ras G12C (Homo sapiens (Human), UniProt P01116+P62937, G12C)"
property_label = "IC50"
result = "10 to 100 nM"

[[record]]
molecule = "C=CC(=O)N1CCN(C(=O)N(C)[C@H](C(=O)N[C@H]2Cc3nc(cs3)-c3ccc4c(c3)c(c(-c3cccnc3[C@H](C)OC)n4CC)CC(C)(C)COC(=O)[C@@H]3CCCN(N3)C2=O)C(C)C)[C@H]2C[C@H]21 (atropisomer, axis not shown)"
measurement_target = "K-Ras G12C (Homo sapiens (Human), UniProt P01116+P62937, G12C)"
property_label = "IC50"
result = "10 to 100 nM"


Value sought for every listed molecule: IC50.
1. C=CC(=O)Nc1cnc(C(=O)N(C)[C@H](C(=O)N[C@H]2Cc3cc(O)cc(c3)-c3ccc4c(c3)c(c(-c3cccnc3[C@H](C)OC)n4CC)CC(C)(C)COC(=O)[C@@H]3CCCN(N3)C2=O)C(C)C)s1 (atropisomer, axis not shown)
2. CC#CC(=O)N1C[C@H](C)[C@H](C(=O)N(C)[C@H](C(=O)N[C@H]2Cc3cccc(c3)-c3ccc4c(c3)c(c(-c3cccnc3[C@H](C)OC)n4CC)CC(C)(C)COC(=O)[C@@H]3CCCN(N3)C2=O)C(C)C)C1 (atropisomer, axis not shown)
3. CCn1c(-c2cccnc2[C@H](C)OC)c2c3cc(ccc31)-c1csc(n1)C[C@H](NC(=O)CCOC1CN(C(=O)C#CC(C)(C)N(C)C)C1)C(=O)N1CCC[C@H](N1)C(=O)OCC(C)(C)C2 (atropisomer, axis not shown)

a:
1. 100 to 1000 nM
2. 100 to 1000 nM
3. < 10 nM
